# MEASUREMENT NOTES: in vitro
# SETTINGS: african green monkey, vero cells
Entries and their measured CC50 at 24 h follow.
METRIC: CC50 at 24 h

• O=C1Nc2ccc(Cl)cc2[C@@](C#CC2CC2)(C(F)(F)F)O1 [efavirenz] = 53.6 µM
• C[C@H]1CC[C@]2(NC1)O[C@H]1C[C@H]3[C@@H]4CC[C@H]5C[C@@H](O)CC[C@]5(C)[C@H]4CC[C@]3(C)[C@H]1[C@@H]2C [Tomatidine] = 17.2 µM

###

# MEASUREMENT NOTES: in vitro
# SETTINGS: hamster, bhk-21 cells
METRIC: CC50 at 24 h

* C[C@H]1CC[C@]2(NC1)O[C@H]1C[C@H]3[C@@H]4CC[C@H]5C[C@@H](O)CC[C@]5(C)[C@H]4CC[C@]3(C)[C@H]1[C@@H]2C | 23.8 µM
* O=C1Nc2ccc(Cl)cc2[C@@](C#CC2CC2)(C(F)(F)F)O1 | 40.9 µM

###

# Test system: Chikungunya virus CHIKV
# MEASUREMENT NOTES: microbe, parasite or virus in culture
# SETTINGS: Vero, 24 h, read-out: CHIKV EC50 (µM)
Form field: EC50 (one value per entry).
METRIC: EC50 (µM)

• C[C@H]1CC[C@]2(NC1)O[C@H]1C[C@H]3[C@@H]4CC[C@H]5C[C@@H](O)CC[C@]5(C)[C@H]4CC[C@]3(C)[C@H]1[C@@H]2C = 5.35
• O=C1Nc2ccc(Cl)cc2[C@@](C#CC2CC2)(C(F)(F)F)O1 = 1.33
